- Test system: SK-LMS-1
- Measurement notes: relative viability vs DMSO control (72 h) (fraction); higher = more viable cells
- Condition: 3.333 µM
Please respond with reported relative viability for every item in the list.
One number for each entry.

Solved cases below.
Input smiles	relative viability
N#CCC1(n2cc(-c3ncnc4[nH]ccc34)cn2)CN(C2CCN(C(=O)c3ccnc(C(F)(F)F)c3F)CC2)C1	0.913
CCCCCCCCCCCCCCCCCCOP(=O)([O-])OC1CC[N+](C)(C)CC1	0.836
CCN(CCCOc1ccc2c(Nc3cc(CC(=O)Nc4cccc(F)c4)[nH]n3)ncnc2c1)CCOP(=O)(O)O	0.887
CO[C@@H]1[C@H](N(C)C(=O)c2ccccc2)C[C@H]2O[C@]1(C)n1c3ccccc3c3c4c(c5c6ccccc6n2c5c31)C(=O)NC4	0.36
CC[C@@H]1C(=O)N(C)c2cnc(Nc3ccc(C(=O)N[C@H]4CC[C@H](N5CCN(CC6CC6)CC5)CC4)cc3OC)nc2N1C(C)C	0.381
NC(=O)c1cccc2cn(-c3ccc([C@@H]4CCCNC4)cc3)nc12	1.03

Then there is this compound:
## Task Requested read-out: relative viability. Entry: `COc1cc(Nc2c(C#N)cnc3cc(OCCCN4CCN(C)CC4)c(OC)cc23)c(Cl)cc1Cl`
## Result 0.873

---

- Tested on: G401
- Measurement notes: relative viability vs DMSO control (72 h) (fraction); higher = more viable cells
- Condition: 0.1235 µM
Please respond with reported relative viability for every item in the list.
Numbers only.

Input smiles	relative viability
C=CC(=O)Nc1cc(Nc2nccc(-c3cn(C)c4ccccc34)n2)c(OC)cc1N(C)CCN(C)C	0.962
COc1cc2c(Oc3ccc4[nH]c(C)cc4c3F)ccnc2cc1OCC1(N)CC1	0.955
C[C@@H](Oc1cc(-c2cnn(C3CCNCC3)c2)cnc1N)c1c(Cl)ccc(F)c1Cl	0.989

Then there is this molecule:
## Task Requested read-out: relative viability. Entry: `CCCCCCCCCCCCCCCCCCOP(=O)([O-])OC1CC[N+](C)(C)CC1`
## Result 1.06

---

- System: HT1080
- Measurement notes: relative viability vs DMSO control (72 h) (fraction); higher = more viable cells
- Condition: 10 µM
Please respond with reported relative viability for every item in the list.
Give bare numbers.

Solved cases below.
Input smiles	relative viability
CCCS(=O)(=O)N[C@H]1C[C@@H](N(C)c2ncnc3[nH]ccc23)C1	1.05
Cc1cn(-c2cc(NC(=O)c3ccc(C)c(Nc4nccc(-c5cnccn5)n4)c3)cc(C(F)(F)F)c2)cn1	1.06
COc1cc(OC)cc(N(CCNC(C)C)c2ccc3ncc(-c4cnn(C)c4)nc3c2)c1	0.41
CO[C@H]1C[C@@H]2CC[C@@H](C)[C@@](O)(O2)C(=O)C(=O)N2CCCC[C@H]2C(=O)O[C@H]([C@H](C)C[C@@H]2CC[C@@H](O)[C@H](OC)C2)CC(=O)[C@H](C)/C=C(\C)[C@@H](O)[C@@H](OC)C(=O)[C@H](C)C[C@H](C)/C=C/C=C/C=C/1C	0.851

Give relative viability for all compounds that follow.
1. Cc1cccc(-c2[nH]c(CNc3ccccc3F)nc2-c2ccc3ncnn3c2)n1
2. COc1cc2ncnc(Nc3ccc(F)c(Cl)c3)c2cc1NC(=O)/C=C/CN1CCCCC1

## Result
1.01
0.0364

## Task Requested read-out: relative viability. Entry: `Cc1nc(Nc2ncc(C(=O)Nc3c(C)cccc3Cl)s2)cc(N2CCN(CCO)CC2)n1`
## Result 0.535

---

- Test system: SW872
- Measurement notes: relative viability vs DMSO control (72 h) (fraction); higher = more viable cells
- Condition: 0.00152 µM
Please respond with reported relative viability for every item in the list.
Give bare numbers.

Compound	System name	relative viability
COc1cc2c(Oc3ccc4[nH]c(C)cc4c3F)ccnc2cc1OCC1(N)CC1 [Anlotinib]	SW872	0.985
NC(=O)c1cccc2cn(-c3ccc([C@@H]4CCCNC4)cc3)nc12 [Niraparib]	SW872	1.03
N#CCC1(n2cc(-c3ncnc4[nH]ccc34)cn2)CN(C2CCN(C(=O)c3ccnc(C(F)(F)F)c3F)CC2)C1 [Itacitinib]	SW872	0.975
Cc1cn(-c2cc(NC(=O)c3ccc(C)c(Nc4nccc(-c5cnccn5)n4)c3)cc(C(F)(F)F)c2)cn1 [Radotinib]	SW872	1.07

Give relative viability for all compounds that follow.
1. Cc1ccc(NC(=O)c2ccc(CN3CCN(C)CC3)cc2)cc1Nc1nccc(-c2cccnc2)n1 [Imatinib]
2. C=CC(=O)Nc1cccc(Nc2nc(Nc3ccc(N4CCN(C(C)=O)CC4)cc3OC)ncc2C(F)(F)F)c1 [Rociletinib]
3. C[C@@H](Oc1cc(-c2cnn(C3CCNCC3)c2)cnc1N)c1c(Cl)ccc(F)c1Cl [Crizotinib]
4. C[C@@H]1COC(Nc2ccc3ncnc(Nc4ccc(OCc5nccs5)c(Cl)c4)c3c2)=N1 [Varlitinib]
5. COc1cc2ncnc(Nc3ccc(F)c(Cl)c3)c2cc1NC(=O)/C=C/CN1CCCCC1 [Dacomitinib]
6. Cc1cccc(-c2[nH]c(CNc3ccccc3F)nc2-c2ccc3ncnn3c2)n1 [Vactosertib]

## Result
0.954
1.07
1.09
1.1
1.1
0.932

---

- Tested on: VA-ES-BJ
- Measurement notes: relative viability vs DMSO control (72 h) (fraction); higher = more viable cells
- Condition: 0.3704 µM
Please respond with reported relative viability for every item in the list.

Solved cases below.
Input smiles	relative viability
COc1cc2ncnc(Nc3cccc(Cl)c3F)c2cc1OC(=O)N1CCN(C)C[C@H]1C	0.949
COc1cc2nccc(Oc3ccc(NC(=O)NC4CC4)c(Cl)c3)c2cc1C(N)=O	1.13
C=CC(=O)Nc1cccc(Nc2nc(Nc3ccc(N4CCN(C(C)=O)CC4)cc3OC)ncc2C(F)(F)F)c1	0.972

## Task Requested read-out: relative viability. Entry: `COc1cc(OC)cc(N(CCNC(C)C)c2ccc3ncc(-c4cnn(C)c4)nc3c2)c1`
## Result 1.04

---

Please respond with reported relative viability for every item in the list.
- Tested on: KHOS-NP
- Measurement notes: relative viability vs DMSO control (72 h) (fraction); higher = more viable cells
- Condition: 1.111 µM
Give bare numbers.

Input smiles	Result type	Recorded result
NC(=O)c1cnc2[nH]ccc2c1N[C@@H]1[C@@H]2CC3C[C@H]1C[C@@](O)(C3)C2	relative viability	1.07
Cc1cc(Nc2ncc(Cl)c(Nc3ccccc3S(=O)(=O)C(C)C)n2)c(OC(C)C)cc1C1CCNCC1	relative viability	1.02
CCCCCCCCCCCCCCCCCCOP(=O)([O-])OC1CC[N+](C)(C)CC1	relative viability	1.03
CNC(=O)c1cc(Oc2ccc(NC(=O)Nc3ccc(Cl)c(C(F)(F)F)c3)cc2)ccn1	relative viability	0.993
C#Cc1cccc(Nc2ncnc3cc(OCCOC)c(OCCOC)cc23)c1	relative viability	1.1
Cc1cn(-c2cc(NC(=O)c3ccc(C)c(Nc4nccc(-c5cccnc5)n4)c3)cc(C(F)(F)F)c2)cn1	relative viability	1.04
C[C@H]1Oc2cc(cnc2N)-c2c(nn(C)c2C#N)CN(C)C(=O)c2ccc(F)cc21	relative viability	0.999
C=CC(=O)Nc1cc(Nc2nccc(-c3cn(C)c4ccccc34)n2)c(OC)cc1N(C)CCN(C)C	relative viability	1.05
CN1CCN(CCOc2cc(OC3CCOCC3)c3c(Nc4c(Cl)ccc5c4OCO5)ncnc3c2)CC1	relative viability	0.994

Then there is this compound:
## Task Requested read-out: relative viability. Entry: `C1=N/C2=N/c3ccc(OCCN4CCCC4)c(c3)COC/C=C/COCc3cccc(c3)C(=C1)N2`
## Result 0.996

---

Please respond with reported standardised AUC for every item in the list.
- Tested on: G401
- Measurement notes: standardised AUC of viability dose-response curve (72 h) (fraction (0-1)); higher = less growth inhibition (more resistant)
Numbers only.

Compound	standardised AUC
C[C@@H]1COC(Nc2ccc3ncnc(Nc4ccc(OCc5nccs5)c(Cl)c4)c3c2)=N1 [VARLITINIB]	0.953
CN(C)C[C@@H]1CCn2cc(c3ccccc32)C2=C(C(=O)NC2=O)c2cn(c3ccccc23)CCO1 [RUBOXISTAURIN]	0.954

Then there is this compound:
## Task Requested read-out: standardised AUC. Entry: COc1cc(Nc2c(C#N)cnc3cc(OCCCN4CCN(C)CC4)c(OC)cc23)c(Cl)cc1Cl [BOSUTINIB]
## Result 0.932

---

- Test system: A204
- Measurement notes: relative viability vs DMSO control (72 h) (fraction); higher = more viable cells
- Condition: 0.00457 µM
Result type: relative viability
Answers are plain numbers.

Compound	relative viability
NC(=O)c1cnc2[nH]ccc2c1N[C@@H]1[C@@H]2CC3C[C@H]1C[C@@](O)(C3)C2 [Peficitinib]	1.06

Give relative viability for all compounds that follow.
1. COc1cc(OC)cc(N(CCNC(C)C)c2ccc3ncc(-c4cnn(C)c4)nc3c2)c1 [Erdafitinib]
2. CCCCCCCCCCCCCCCCCCOP(=O)([O-])OC1CC[N+](C)(C)CC1 [Perifosine]

## Result
0.934
1.07

Give relative viability for all compounds that follow.
1. CCCS(=O)(=O)N[C@H]1C[C@@H](N(C)c2ncnc3[nH]ccc23)C1 [Abrocitinib]
2. Cc1ccc(NC(=O)c2ccc(CN3CCN(C)CC3)cc2)cc1Nc1nccc(-c2cccnc2)n1 [Imatinib]
3. COc1cc2ncnc(Nc3ccc(F)c(Cl)c3)c2cc1NC(=O)/C=C/CN1CCCCC1 [Dacomitinib]
4. COc1cc2nccc(Oc3ccc(NC(=O)NC4CC4)c(Cl)c3)c2cc1C(N)=O [Lenvatinib]
5. Cc1cn(-c2cc(NC(=O)c3ccc(C)c(Nc4nccc(-c5cccnc5)n4)c3)cc(C(F)(F)F)c2)cn1 [Nilotinib]
6. C#Cc1cccc(Nc2ncnc3cc(OCCOC)c(OCCOC)cc23)c1 [Erlotinib]
7. C[C@@H]1COC(Nc2ccc3ncnc(Nc4ccc(OCc5nccs5)c(Cl)c4)c3c2)=N1 [Varlitinib]
8. Cc1cc(Nc2ncc(Cl)c(Nc3ccccc3S(=O)(=O)C(C)C)n2)c(OC(C)C)cc1C1CCNCC1 [Ceritinib]

## Result
1: 1.06; 2: 0.99; 3: 1.08; 4: 1.02; 5: 1.04; 6: 1.09; 7: 1.06; 8: 1.07

## Task Requested read-out: relative viability. Entry: CC[C@@H]1C(=O)N(C)c2cnc(Nc3ccc(C(=O)N[C@H]4CC[C@H](N5CCN(CC6CC6)CC5)CC4)cc3OC)nc2N1C(C)C [Volasertib]
## Result 1.1
